target-or-test-system: Tyrosyl-tRNA synthetase, putative (Trypanosoma cruzi (strain CL Brener))
Sequence (whole entry): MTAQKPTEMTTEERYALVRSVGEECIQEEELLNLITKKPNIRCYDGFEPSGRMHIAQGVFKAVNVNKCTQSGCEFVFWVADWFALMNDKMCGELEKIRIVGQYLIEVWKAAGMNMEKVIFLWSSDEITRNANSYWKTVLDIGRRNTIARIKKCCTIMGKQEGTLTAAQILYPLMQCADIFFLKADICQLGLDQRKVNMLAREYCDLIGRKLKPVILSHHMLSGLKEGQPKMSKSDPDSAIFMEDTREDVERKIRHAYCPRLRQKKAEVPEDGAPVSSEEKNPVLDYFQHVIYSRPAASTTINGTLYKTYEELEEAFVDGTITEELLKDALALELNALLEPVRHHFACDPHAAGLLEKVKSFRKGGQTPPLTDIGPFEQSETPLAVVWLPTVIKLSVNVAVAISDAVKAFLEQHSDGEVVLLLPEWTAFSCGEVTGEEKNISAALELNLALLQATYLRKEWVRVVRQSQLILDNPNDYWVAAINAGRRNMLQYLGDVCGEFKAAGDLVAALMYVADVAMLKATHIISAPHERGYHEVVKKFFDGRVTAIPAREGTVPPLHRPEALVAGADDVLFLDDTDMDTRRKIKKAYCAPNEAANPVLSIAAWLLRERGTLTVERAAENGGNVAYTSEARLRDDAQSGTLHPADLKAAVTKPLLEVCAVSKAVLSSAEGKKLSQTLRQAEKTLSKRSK
experiment: Trypanosoma cruzi tyrosyl tRNA synthetase (TcYRS) _High Tyrosine SOP; also: in the data most compounds retested in dose-response had high values
Type: functional
Parameters: scale not given: direction of the effect not stated beside the values
condition-summary: 30 µM

# molecule, Percent Effect
records = [
    ("CNC(=O)N1CC[C@@H]2CN(Cc3cccnc3)S(=O)(=O)[C@@H]2CC1", "0%"),
    ("Cc1nccc(CN2CCC(c3nnsc3S(C)(=O)=O)CC2)n1", "3.23%"),
    ("Cc1ccc(CC(=O)N2CSCC2C(=O)N(C)Cc2ccco2)o1 (stereo not given)", "3.45%"),
    ("Cc1cc(C[S+]([O-])CC(=O)NCC(C)C)no1 (stereo not given)", "7.77%"),
    ("Cc1cccc(OCCC(=O)N(C)CCC#N)c1C", "4.25%"),
    ("Cc1nccn1CC1CCCN1S(=O)(=O)Cc1ccon1 (stereo not given)", "5.42%"),
    ("CC1CCCN(CC(=O)N2CCC(c3ncc4c(n3)CCNC4)CC2)C1 (stereo not given)", "-1.06%"),
    ("CC(NC(=O)CNCCn1cccn1)c1ccc2c(c1)CCCC2 (stereo not given)", "12.6%"),
    ("Cc1cnn(CC2CN(Cc3nccn3C)CCO2)c1 (stereo not given)", "6.93%"),
    ("Cc1nc(CN2CCCC(NCCOCC(F)(F)F)C2)no1 (stereo not given)", "4.43%"),
    ("N#CC(Sc1nnnn1C1CCOCC1)C1CCCCC1 (stereo not given)", "3.83%"),
    ("O=C(c1ccc(Br)o1)N1CCCC(n2cncn2)C1 (stereo not given)", "0%"),
    ("COc1cc(CN2CCN(c3cccc(OC)c3)C(=O)C2)cc(OC)c1", "2.1%"),
    ("CCS(=O)(=O)c1ccccc1N1CCC(NC(=O)c2ccc[nH]2)CC1", "8.91%"),
    ("COc1ccccc1CNC(=O)N1CCCC(NS(C)(=O)=O)C1 (stereo not given)", "-25.7%"),
    ("CC(=O)Nc1nc(CN2CCOC(Cn3cc(C)cn3)C2)cs1 (stereo not given)", "3.81%"),
    ("Cc1csc(N2CCN(C(=O)CCC(=O)c3ccc(C)s3)CC2)n1", "7.39%"),
    ("Cc1cnn(CCNCc2csc(-c3cccs3)n2)c1", "-3.43%"),
    ("c1ccc(-c2nc(CNC3CCc4ncnn4C3)co2)cc1 (stereo not given)", "8.74%"),
    ("Cc1nn(C)c(C)c1C1CCCN1Cc1nc(-c2ccco2)no1 (stereo not given)", "10.9%"),
    ("Clc1ccc2cccnc2c1CN1CCCC1Cn1cncn1 (stereo not given)", "7.92%"),
    ("CC(=O)N(C)c1nc(CN2CCCCC2Cn2cncn2)cs1 (stereo not given)", "5.83%"),
    ("CCN(CC)Cc1ccc(C(=O)N2CCN(CC(C)O)CC2)cc1 (stereo not given)", "4.43%"),
    ("CCn1cnnc1CNC(=O)NC(C)c1cccs1 (stereo not given)", "4.85%"),
    ("CC(C)C(Sc1nnnn1-c1ccccc1)C(=O)NCc1cccnc1 (stereo not given)", "4.85%"),
]

* * *

target-or-test-system: Ubiquitin-activating enzyme e1, putative (Leishmania donovani (strain BPK282A1))
experiment: Leishmania donovani Ubiquitin Activating Enzyme (LdE1)
Assay type: functional
Design: scale not given: direction of the effect not stated beside the values
condition-summary: 30 µM
Entries with a potency or affinity are not part of this list.
quantity-name: Percent Effect (%)

# compound, target-or-test-system, quantity-name, recorded-result
rows = [
    ("CC(=O)N(Cc1ncc(C(C)C)o1)C1CCN(Cc2nccn2C)C1 (configuration not stated)", "Ubiquitin-activating enzyme e1, putative (Leishmania donovani (strain BPK282A1))", "Percent Effect", 13.5),
    ("Cc1nc(CN2CCN(C(=O)c3sccc3C3CC3)CC2)cs1", "Ubiquitin-activating enzyme e1, putative (Leishmania donovani (strain BPK282A1))", "Percent Effect", 0),
    ("CC(C)CN1Cc2c(C(=O)N(C)C)ncn2-c2ccccc2S1(=O)=O", "Ubiquitin-activating enzyme e1, putative (Leishmania donovani (strain BPK282A1))", "Percent Effect", 5.41),
    ("CCN(C(=O)COC)C(c1cccnc1)c1ccc2c(c1)CCO2 (configuration not stated)", "Ubiquitin-activating enzyme e1, putative (Leishmania donovani (strain BPK282A1))", "Percent Effect", 2.74),
    ("CCn1c(N)nc2cc(C(=O)NCc3ccccc3Cl)cnc21", "Ubiquitin-activating enzyme e1, putative (Leishmania donovani (strain BPK282A1))", "Percent Effect", 8.22),
    ("Cc1ccc(NC(=O)NC(C)c2nc[nH]n2)cc1 (configuration not stated)", "Ubiquitin-activating enzyme e1, putative (Leishmania donovani (strain BPK282A1))", "Percent Effect", -10.8),
    ("COc1cccc(CC(=O)N2CCc3ncnc(NC(C)C)c3CC2)c1", "Ubiquitin-activating enzyme e1, putative (Leishmania donovani (strain BPK282A1))", "Percent Effect", -18.9),
    ("CCc1nc2n(n1)CC(NCc1noc(-c3ccccc3)n1)CC2 (configuration not stated)", "Ubiquitin-activating enzyme e1, putative (Leishmania donovani (strain BPK282A1))", "Percent Effect", 5.26),
    ("O=C(c1ccoc1)N1CC[C@H]2OCC[C@@]2(COc2ncccc2F)C1", "Ubiquitin-activating enzyme e1, putative (Leishmania donovani (strain BPK282A1))", "Percent Effect", 18.9),
    ("CS(=O)(=O)N1CCC(O)(Cn2c(C3CC3)nc3ccccc3c2=O)CC1", "Ubiquitin-activating enzyme e1, putative (Leishmania donovani (strain BPK282A1))", "Percent Effect", 1.35),
    ("CCCNC(=O)CN1CCN(Cc2csc(C(C)(C)C)n2)CC1", "Ubiquitin-activating enzyme e1, putative (Leishmania donovani (strain BPK282A1))", "Percent Effect", 2.53),
    ("CC(NC(N)=O)C(=O)N1CCCN(Cc2nccn2C(C)C)CC1 (configuration not stated)", "Ubiquitin-activating enzyme e1, putative (Leishmania donovani (strain BPK282A1))", "Percent Effect", 1.27),
    ("O=C(CSC1=NS(=O)(=O)c2cc(F)ccc2N1)c1ccc(Cl)cc1", "Ubiquitin-activating enzyme e1, putative (Leishmania donovani (strain BPK282A1))", "Percent Effect", 0),
    ("CCOc1ccc(-n2nnc(C(=O)O)c2-c2ccncc2)cc1", "Ubiquitin-activating enzyme e1, putative (Leishmania donovani (strain BPK282A1))", "Percent Effect", 13.2),
    ("Cc1cnn(CC2CN(Cc3nnc(C4CC4)o3)CCO2)c1 (configuration not stated)", "Ubiquitin-activating enzyme e1, putative (Leishmania donovani (strain BPK282A1))", "Percent Effect", 5.41),
    ("COC(=O)C(NC(=O)C(C)C)c1cc(F)ccc1F (configuration not stated)", "Ubiquitin-activating enzyme e1, putative (Leishmania donovani (strain BPK282A1))", "Percent Effect", 10.4),
    ("CC(C)N1CCC(Cc2cncc(-c3ccccc3C(=O)O)n2)CC1", "Ubiquitin-activating enzyme e1, putative (Leishmania donovani (strain BPK282A1))", "Percent Effect", 8),
    ("COc1ccc(CN(C)[C@@H]2CN(C(=O)c3cccs3)C[C@H]2O)cc1", "Ubiquitin-activating enzyme e1, putative (Leishmania donovani (strain BPK282A1))", "Percent Effect", 6.76),
    ("O=C(c1cc(=O)[nH]c(=O)[nH]1)N1CCCCC1c1ccc(F)cc1 (configuration not stated)", "Ubiquitin-activating enzyme e1, putative (Leishmania donovani (strain BPK282A1))", "Percent Effect", 4.17),
    ("O=C(CCNC(=O)c1ccccc1N1CCOCC1)NC1CCCC1", "Ubiquitin-activating enzyme e1, putative (Leishmania donovani (strain BPK282A1))", "Percent Effect", 16.4),
    ("CC(C)n1ncc2c1NC(=O)CC21C(=O)Nc2c(Cl)cc(Cl)cc21 (configuration not stated)", "Ubiquitin-activating enzyme e1, putative (Leishmania donovani (strain BPK282A1))", "Percent Effect", 6.67),
    ("Cc1cnn(CCNCC(=O)NCc2ccccc2)c1", "Ubiquitin-activating enzyme e1, putative (Leishmania donovani (strain BPK282A1))", "Percent Effect", 5.26),
    ("CCc1noc(C)c1C(=O)N1CCCC1Cn1cc(C)cn1 (configuration not stated)", "Ubiquitin-activating enzyme e1, putative (Leishmania donovani (strain BPK282A1))", "Percent Effect", 15.8),
    ("O=C(NCCc1cccc(O)c1)NC1CCN(c2ccccc2)C1=O (configuration not stated)", "Ubiquitin-activating enzyme e1, putative (Leishmania donovani (strain BPK282A1))", "Percent Effect", 0),
    ("CN(C)C(=O)[C@@H]1CCO[C@@H]2CCN(Cc3ccccc3)C[C@@H]21", "Ubiquitin-activating enzyme e1, putative (Leishmania donovani (strain BPK282A1))", "Percent Effect", 2.7),
    ("CC(C)[C@H](NC(=O)NC1CCS(=O)(=O)C1)C(=O)Nc1cccnc1 (some centres not stated)", "Ubiquitin-activating enzyme e1, putative (Leishmania donovani (strain BPK282A1))", "Percent Effect", 9.33),
    ("Cc1csc(C2CCCCN2C(=O)CN(C)Cc2ccccc2)n1 (configuration not stated)", "Ubiquitin-activating enzyme e1, putative (Leishmania donovani (strain BPK282A1))", "Percent Effect", -1.27),
    ("CN1C(=O)C(c2cccnc2)CC12CCN(C(=O)c1cccn1C)CC2 (configuration not stated)", "Ubiquitin-activating enzyme e1, putative (Leishmania donovani (strain BPK282A1))", "Percent Effect", 0),
    ("CCCC(=O)Nc1sc(C(=O)OCC)c(C)c1C#N", "Ubiquitin-activating enzyme e1, putative (Leishmania donovani (strain BPK282A1))", "Percent Effect", 7.79),
    ("O=C([C@@H]1CC[C@@H]2[C@@H](CCN2Cc2ccoc2)O1)N1CCCC1", "Ubiquitin-activating enzyme e1, putative (Leishmania donovani (strain BPK282A1))", "Percent Effect", 13.5),
    ("CCCS(=O)(=O)N1CCC(NC(=O)c2ccc(Cl)s2)CC1", "Ubiquitin-activating enzyme e1, putative (Leishmania donovani (strain BPK282A1))", "Percent Effect", 2.67),
    ("Cc1nc(C)n(C2CCCN(C(=O)c3cc4ccccc4n3C)C2)n1 (configuration not stated)", "Ubiquitin-activating enzyme e1, putative (Leishmania donovani (strain BPK282A1))", "Percent Effect", 7.79),
    ("CC(c1nc(C2CC2)no1)N1CCN(c2ccc(C#N)cn2)CC1 (configuration not stated)", "Ubiquitin-activating enzyme e1, putative (Leishmania donovani (strain BPK282A1))", "Percent Effect", 2.63),
    ("Fc1ccc(-c2cnc(CN3CCCC3Cn3cccn3)o2)cc1 (configuration not stated)", "Ubiquitin-activating enzyme e1, putative (Leishmania donovani (strain BPK282A1))", "Percent Effect", 7.59),
    ("CCCN1CCC(N(Cc2ncc(C)o2)C(C)=O)C1 (configuration not stated)", "Ubiquitin-activating enzyme e1, putative (Leishmania donovani (strain BPK282A1))", "Percent Effect", 0),
    ("Cc1cnc2c(S(=O)(=O)NCC3CCN(C4CC4)C3)cccc2c1 (configuration not stated)", "Ubiquitin-activating enzyme e1, putative (Leishmania donovani (strain BPK282A1))", "Percent Effect", -2.63),
    ("CCN(CC)Cc1ccc(C(=O)N2CCCCC2Cn2cccn2)o1 (configuration not stated)", "Ubiquitin-activating enzyme e1, putative (Leishmania donovani (strain BPK282A1))", "Percent Effect", -5.41),
    ("CNC(=O)CCNC(=O)c1cccc(Cn2nc(C)cc2C)c1", "Ubiquitin-activating enzyme e1, putative (Leishmania donovani (strain BPK282A1))", "Percent Effect", 4.17),
    ("CCn1ccnc1CN1CCN(C(C)C(=O)N2CCC(C)CC2)CC1 (configuration not stated)", "Ubiquitin-activating enzyme e1, putative (Leishmania donovani (strain BPK282A1))", "Percent Effect", 2.7),
    ("COc1cccc(C2CCCN2C(=O)c2cc3c([nH]c2=O)CCC3)c1 (configuration not stated)", "Ubiquitin-activating enzyme e1, putative (Leishmania donovani (strain BPK282A1))", "Percent Effect", 5.41),
    ("CN(C)C(=O)CSc1nnc(CCNC(=O)OC(C)(C)C)o1", "Ubiquitin-activating enzyme e1, putative (Leishmania donovani (strain BPK282A1))", "Percent Effect", 9.33),
    ("O=C1N(c2ccccc2)Cc2nc(=O)[nH]n21", "Ubiquitin-activating enzyme e1, putative (Leishmania donovani (strain BPK282A1))", "Percent Effect", 9.33),
    ("O=C(NCc1ccccc1CN1CCC(O)CC1)Nc1cccnc1", "Ubiquitin-activating enzyme e1, putative (Leishmania donovani (strain BPK282A1))", "Percent Effect", -5.41),
    ("O=S(=O)(Cc1ccccc1)NCc1ccco1", "Ubiquitin-activating enzyme e1, putative (Leishmania donovani (strain BPK282A1))", "Percent Effect", -1.39),
    ("Cc1ccc(C(=O)NCC2(O)CCOCC2)cc1Br", "Ubiquitin-activating enzyme e1, putative (Leishmania donovani (strain BPK282A1))", "Percent Effect", 5.41),
    ("Cc1cc(C(=O)N[C@@H]2CCNC[C@H]2O)ccc1Cl", "Ubiquitin-activating enzyme e1, putative (Leishmania donovani (strain BPK282A1))", "Percent Effect", 5.41),
    ("CCc1nnc2n1CCN(CC(=O)Nc1sccc1C#N)C2", "Ubiquitin-activating enzyme e1, putative (Leishmania donovani (strain BPK282A1))", "Percent Effect", 10.5),
]
